experimental details: NCI Yeast Anticancer Drug Screen. Data for the wt2 strain (AID 169);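 further: 0% = growth of vehicle-treated yeast cultures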
run parameters: S. cerevisiae wt2 strain growth inhibition; at 3.7 µM; stronger effect = higher value
About 79,000 compounds went through this panel and 15% of them were active in at least one assay; those are over-represented in the sample as a whole.

>  <compound>
CC(C)CC(NC(=O)C(N)C(C)C)C(=O)NC(CCCCN)C(=O)Nc1ccc(N(CCCl)CCCl)cc1 (stereo not given)

>  <growth inhibition [%]>
-88

$$$$
>  <compound>
Cc1nc2ccccc2cc1C[N+]12CN3CN(CN(C3)C1)C2

>  <growth inhibition [%]>
-5

$$$$
>  <compound>
CC1=C2C(=C[C@@](C)(CO)[C@@H]2O)C(=O)[C@](C)(O)C12CC2

>  <growth inhibition [%]>
0

$$$$
>  <compound>
Nc1nc(-c2ccccc2)c(-c2ccccc2)[se]1

>  <growth inhibition [%]>
-9

$$$$
>  <compound>
OC1CCCC2CCC[N-]C12.OC1CCCC2CCC[N-]C12.[O]=[V][OH] (stereo not given)

>  <growth inhibition [%]>
68

$$$$
>  <compound>
CC12CCC(C1)C(C)(C)C2OC(=O)c1ccccc1N (stereo not given)

>  <growth inhibition [%]>
-8

$$$$
>  <compound>
CC[C@@]1(O)C(=O)OCc2c1cc1n(c2=O)Cc2cc3c(NC(=O)CN)cccc3nc2-1

>  <growth inhibition [%]>
1

$$$$
>  <compound>
CCCCCCCCCCCCCCCCP(=O)(O)OP(=O)(O)OCC1OC(n2ccc(N)nc2=O)C(O)C1O (stereo not given)

>  <growth inhibition [%]>
0

$$$$
>  <compound>
Oc1cccnc1[Se]

>  <growth inhibition [%]>
-9

$$$$
>  <compound>
Cc1cc(N=Nc2ccccc2C)ccc1N

>  <growth inhibition [%]>
-7

$$$$
>  <compound>
N#Cc1cc(N(CCCl)CCCl)c([N+](=O)[O-])cc1[N+](=O)[O-]

>  <growth inhibition [%]>
6

$$$$
>  <compound>
C/C(=N\NC(N)=O)C(CN1CCOCC1)C(c1ccccc1)c1c(O)c2ccccc2oc1=O (stereo not given)

>  <growth inhibition [%]>
0

$$$$
>  <compound>
CC[C@]1(O)CC(OC2CC(N(C)C)C(O)C(C)O2)c2c(cc3c(c2O)C(=O)c2c(O)cccc2C3=O)[C@@H]1C(=O)OC (stereo not given in full)

>  <growth inhibition [%]>
-6

$$$$
>  <compound>
CCOC(=O)C1C2c3ccccc3C(c3ccccc32)C1C(=O)OCC (stereo not given)

>  <growth inhibition [%]>
-11

$$$$
>  <compound>
O=C(COc1ccc(Cl)cc1Cl)NO

>  <growth inhibition [%]>
-2

$$$$
>  <compound>
CCOP(=S)(S)OCC.[Pd]

>  <growth inhibition [%]>
59

$$$$
>  <compound>
Cc1c(N)nc([C@H](CC(N)=O)NC[C@H](N)C(N)=O)nc1C(=O)N[C@H](C(=O)N[C@H](C)[C@@H](O)[C@H](C)C(=O)N[C@H](C(=O)NCCc1nc(-c2nc(C(=O)NCCC[S+](C)C)cs2)cs1)[C@@H](C)O)C(OC1OC(CO)C(O)C(O)C1OC1OC(CO)C(O)C(OC(N)=O)C1O)c1cnc[nH]1 (stereo not given in full)

>  <growth inhibition [%]>
2

$$$$
>  <compound>
OCC(O)C(O)CO (stereo not given) (tested in a mixture with another compound)

>  <growth inhibition [%]>
1

$$$$
>  <compound>
CCC(=O)OC1CCn2c1nc1c2C(=O)C(C)=C(N2CC2)C1=O (stereo not given)

>  <growth inhibition [%]>
-35

$$$$
>  <compound>
CCCCN(CCCC)CC(C(C)=O)C(c1ccccc1)c1c(O)c2ccccc2oc1=O (stereo not given)

>  <growth inhibition [%]>
-1

$$$$

###

experimental details: NCI Yeast Anticancer Drug Screen. Data for the mlh1 strain (AID 171);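 further: 0% = growth of vehicle-treated control cultures of the same strain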
run parameters: S. cerevisiae mlh1 strain growth inhibition; at 1.2 µM; stronger effect = higher value
Procedure: Growth inhibition of yeast strains with defined genetic alterations is measured as a screen for potential anti-cancer activity. Selected strains with alterations in DNA damage repair or cell cycle control were exposed to compounds and growth inhibition was measured relative to vehicle treated controls. The strain used in this assay is mlh1
This is part of a sample that, as a whole, favours compounds with a hit. Of some 79,000 tested, about 15% had one in any assay.
Parameter: growth inhibition. Scope: all listed entries.

>  <compound>
CCCN(CCC)c1c([N+](=O)[O-])cc(S(N)(=O)=O)cc1[N+](=O)[O-]

>  <growth inhibition [%]>
-27

$$$$
>  <compound>
NCCc1ccc(OCc2ccccc2)c(OCc2ccccc2)c1

>  <growth inhibition [%]>
-38

$$$$
>  <compound>
CC1CCC2(NC1)OC1CC3C4CCC5CC(OC6OC(CO)C(OC7OC(CO)C(O)C(OC8OCC(O)C(O)C8O)C7OC7OC(CO)C(O)C(O)C7O)C(O)C6O)CCC5(C)C4CCC3(C)C1C2C (stereo not given)

>  <growth inhibition [%]>
-4

$$$$
>  <compound>
CCCCCNC(=O)c1c(O)[nH]c(=S)[nH]c1=O

>  <growth inhibition [%]>
13

$$$$
>  <compound>
CC(=O)O/C(=C1\C[C@H]2[C@@H]3CC=C4C[C@@H](OC(C)=O)CC[C@]4(C)[C@H]3CC[C@]2(C)C1=O)C(F)(F)F

>  <growth inhibition [%]>
4

$$$$
>  <compound>
C=C[C@H]1CN2CC[C@H]1C[C@@H]2[C@@H](O)c1ccnc2ccccc12

>  <growth inhibition [%]>
-2

$$$$
>  <compound>
O=C1c2ccc3ccccc3c2CCC1N1CCCCC1 (stereo not given)

>  <growth inhibition [%]>
-1

$$$$
>  <compound>
C[N+](C)(C)CC1CCCC(C[N+](C)(C)C)C1=O (stereo not given)

>  <growth inhibition [%]>
0

$$$$
>  <compound>
C[C@]12CCC3[C@@H](CC[C@@H]4c5nonc5CC[C@]34C)C1CCC2=O (stereo not given in full)

>  <growth inhibition [%]>
8

$$$$
>  <compound>
Cc1c2ccccc2cc2ccccc12

>  <growth inhibition [%]>
8

$$$$
>  <compound>
COc1cc(O)c2c(O)c3c(c4c2c1[C@]1(C4)C(C)=CCCC1(C)C)[C@H](O)[C@@]1(O)CC(=O)C(C(N)=O)=C(O)[C@@]1(O)C3=O

>  <growth inhibition [%]>
-21

$$$$
>  <compound>
S=C1NC2(CCCCC2)NC12CCCCC2

>  <growth inhibition [%]>
-6

$$$$
>  <compound>
Oc1cccnc1[Se]

>  <growth inhibition [%]>
-2

$$$$
>  <compound>
CC1=C2C(=C[C@@](C)(CO)[C@@H]2O)C(=O)[C@](C)(O)C12CC2

>  <growth inhibition [%]>
0

$$$$
>  <compound>
COC(=O)C1=C(C(=O)OC)SC2(S1)C(C(=O)OC)=C(C(=O)OC)Sc1c2ssc1=O

>  <growth inhibition [%]>
44

$$$$
>  <compound>
CCNCC(=O)O[C@]1(CC)C(=O)OCc2c1cc1n(c2=O)Cc2cc3ccccc3nc2-1

>  <growth inhibition [%]>
13

$$$$
>  <compound>
CC[C@@]1(O)C(=O)OCc2c1cc1n(c2=O)Cc2cc3ccccc3nc2-1

>  <growth inhibition [%]>
-2

$$$$
>  <compound>
CCOC(=O)C1=C(C(=O)OCC)C2(c3ccccc3)N(O1)c1ccccc1C2(C)C (stereo not given)

>  <growth inhibition [%]>
-3

$$$$
>  <compound>
Cc1ccc2c(c1N)C(=O)c1ccccc1C2=O

>  <growth inhibition [%]>
-3

$$$$
>  <compound>
O=S(=O)(O)/C(=C\c1ccccc1)c1ccccc1 (tested in a mixture with another compound)

>  <growth inhibition [%]>
0

$$$$

###

The following molecules are shown together with reported growth inhibition values.
experimental details: NCI Yeast Anticancer Drug Screen. Data for the mlh1 strain (AID 171);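 further: 0% = growth of vehicle-treated control cultures of the same strain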
run parameters: S. cerevisiae mlh1 strain growth inhibition; at 3.7 µM; stronger effect = higher value
About 79,000 compounds went through this panel and 15% of them were active in at least one assay; those are over-represented in the sample as a whole.
endpoint label: growth inhibition (%)

>  <molecule>
O=[N+]([O-])c1ccc(C=Cc2ccccc2)cc1.[C-]#[O+].[C-]#[O+].[C-]#[O+].[Cr]

>  <data value>
-1

$$$$
>  <molecule>
O=c1oc2ccccc2c(O)c1C(c1ccc2c(c1)Cc1ccccc1-2)c1c(O)c2ccccc2oc1=O

>  <data value>
3

$$$$
>  <molecule>
COC(=O)C1C2c3ccccc3C(c3ccccc32)C1C(=O)OC (centres undefined)

>  <data value>
-2

$$$$
>  <molecule>
O=C(COc1ccc(Cl)cc1Cl)NO

>  <data value>
-9

$$$$
>  <molecule>
O=S(=O)(O)/C(=C\c1ccccc1)c1ccccc1 (tested in a mixture with another compound)

>  <data value>
2

$$$$
>  <molecule>
[O-][n+]1c2cccc(O)c2[n+]([O-])c2cccc(O)c21

>  <data value>
0

$$$$
>  <molecule>
CC1(C)N=C(N)N=C(N)N1c1cccc(N)c1.[Sn]

>  <data value>
22

$$$$
>  <molecule>
Nc1nnc(N)n1-n1c(N)nnc1N

>  <data value>
0

$$$$
>  <molecule>
C[C@]12CCC(=O)C=C1CC[C@@H]1C2CC[C@@]2(C)C1CC[C@@H]2OC(=O)C12OC1CCC2=O (some centres undefined)

>  <data value>
17

$$$$
>  <molecule>
C[N+](C)(C)CC1CCCC(C[N+](C)(C)C)C1=O (centres undefined)

>  <data value>
3

$$$$
>  <molecule>
CC1CC(C)CC(C)C(O)/C(C#N)=C/C=C/CC(C2CCCC2C(=O)O)OC(=O)CC(O)C(C)C1 (centres undefined)

>  <data value>
98

$$$$
>  <molecule>
c1cc2c(cc1C1OC[C@H]3[C@@H](c4ccc5c(c4)OCO5)OC[C@@H]13)OCO2 (some centres undefined)

>  <data value>
-8

$$$$
>  <molecule>
COc1cc(C2c3cc4c(cc3[C@@H](Nc3ccc(N)cc3)C3COC(=O)[C@H]23)OCO4)cc(OC)c1O (some centres undefined)

>  <data value>
74

$$$$
>  <molecule>
CCS(=O)(=O)[O][Sn]([CH2]C)([CH2]C)[O]S(=O)(=O)CC

>  <data value>
5

$$$$

Origin of the recorded values: PubChem BioAssay (NCI)
